SYSTEM: hpol κ (Homo sapiens, UniProt Q9UBT6)
Sequence (Q9UBT6 19-526): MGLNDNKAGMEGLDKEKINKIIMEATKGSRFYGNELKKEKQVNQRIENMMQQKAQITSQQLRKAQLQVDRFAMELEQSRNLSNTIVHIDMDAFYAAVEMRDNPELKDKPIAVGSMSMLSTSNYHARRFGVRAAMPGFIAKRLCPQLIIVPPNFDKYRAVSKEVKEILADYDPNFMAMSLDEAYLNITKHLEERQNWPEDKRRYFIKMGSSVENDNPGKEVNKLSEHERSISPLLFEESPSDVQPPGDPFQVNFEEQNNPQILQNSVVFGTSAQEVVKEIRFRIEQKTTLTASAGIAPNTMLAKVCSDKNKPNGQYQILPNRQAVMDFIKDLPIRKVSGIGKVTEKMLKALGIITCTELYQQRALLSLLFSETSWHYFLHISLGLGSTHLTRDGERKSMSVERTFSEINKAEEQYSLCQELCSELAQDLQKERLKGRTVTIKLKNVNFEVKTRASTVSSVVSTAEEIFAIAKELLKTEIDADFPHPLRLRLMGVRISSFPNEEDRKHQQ
MEASURED ATTRIBUTE: pIC50
Here pIC50 is given on a logarithmic scale as minus log10 of the concentration in mol/L.

The reported pIC50 of the compound "O=C1NC(=S)NC(=O)C1=Cc1cn(Cc2ccc3ccccc3c2)c2ccc(Cl)cc12" was 4.66

###

SYSTEM: hRev1 (Homo sapiens, UniProt Q9UBZ9)
Sequence (Q9UBZ9 330-833): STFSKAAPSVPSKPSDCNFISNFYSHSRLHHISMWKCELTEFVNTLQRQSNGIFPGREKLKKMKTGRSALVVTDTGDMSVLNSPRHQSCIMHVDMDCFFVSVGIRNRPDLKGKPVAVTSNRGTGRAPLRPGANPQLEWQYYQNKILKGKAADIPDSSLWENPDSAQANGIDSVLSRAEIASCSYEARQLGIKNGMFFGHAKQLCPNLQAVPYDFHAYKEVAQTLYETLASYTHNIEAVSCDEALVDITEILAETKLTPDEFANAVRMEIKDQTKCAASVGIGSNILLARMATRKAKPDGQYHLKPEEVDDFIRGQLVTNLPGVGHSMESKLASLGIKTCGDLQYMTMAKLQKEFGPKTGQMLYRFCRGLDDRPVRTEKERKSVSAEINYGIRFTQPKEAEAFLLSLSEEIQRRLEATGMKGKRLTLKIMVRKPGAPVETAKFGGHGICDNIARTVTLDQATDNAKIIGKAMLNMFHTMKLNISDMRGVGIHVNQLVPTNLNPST
MEASURED ATTRIBUTE: IC50
Don't forget the unit after the value.

The reported IC50 of the molecule O=C1NC(=S)NC(=O)C1=Cc1cn(Cc2ccc3ccccc3c2)c2ccc(Cl)cc12 [PNR-7-02] was 8 µM

###

Tested on: HAP-1 cells (hpol η-proficient, parental)
EXPERIMENT SUMMARY: Cell viability
Format: cell-based, human
COND: read-out: EC50, cell viability, PNR-7-02 alone; hpol η-proficient parental HAP-1; 48 h
MEASURED ATTRIBUTE: pEC50
Here pEC50 is given on a logarithmic scale as minus log10 of the concentration in mol/L.

The reported pEC50 of the compound "O=C1NC(=S)NC(=O)C1=Cc1cn(Cc2ccc3ccccc3c2)c2ccc(Cl)cc12" was 5.34

###

SYSTEM: hpol η (Homo sapiens)
Sequence (Q9Y253 1-437): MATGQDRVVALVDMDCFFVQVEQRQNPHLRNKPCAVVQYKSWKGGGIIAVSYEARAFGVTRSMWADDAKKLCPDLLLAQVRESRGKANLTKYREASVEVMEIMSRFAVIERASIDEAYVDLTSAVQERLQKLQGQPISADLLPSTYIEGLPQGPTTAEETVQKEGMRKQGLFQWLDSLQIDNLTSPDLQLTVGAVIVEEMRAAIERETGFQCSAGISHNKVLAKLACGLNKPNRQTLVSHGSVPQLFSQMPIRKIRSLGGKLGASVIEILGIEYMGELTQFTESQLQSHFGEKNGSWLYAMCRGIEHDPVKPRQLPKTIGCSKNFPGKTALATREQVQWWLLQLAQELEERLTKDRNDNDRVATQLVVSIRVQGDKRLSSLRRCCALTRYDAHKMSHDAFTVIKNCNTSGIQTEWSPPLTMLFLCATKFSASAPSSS
EXPERIMENT SUMMARY: Gel-based pol extension assay, hpol η
Assay type: biochemical
COND: read-out: IC50, hpol η, gel-based assay; best-fit value (95% confidence interval), three experiments
MEASURED ATTRIBUTE: pIC50
Here pIC50 is given on a logarithmic scale as minus log10 of the concentration in mol/L.

Record "O=C1NC(=S)NC(=O)C1=Cc1cn(Cc2ccc3ccccc3c2)c2ccc(Cl)cc12" has hpol η (Homo sapiens) pIC50 equal to 5.10
